Listed here are sequences together with their documented PBM binding z-score.
test system: PXR:RXRa (NR concentration 270 nM, RXRa partner concentration 90 nM); test: PBM binding z-score (relative to random genomic background probes); higher = stronger binding; sequences stand for … in GC…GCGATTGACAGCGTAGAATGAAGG

CTACCAAGGTGTACAAGGTCGTTGATTACTATTC	1.61

Field PBM binding z-score (system: PXR:RXRa (NR concentration 270 nM, RXRa partner concentration 90 nM)) for entry TTATATAGGTAATACAGGTGAAAGTCGGCATCTA = 0.367

Field PBM binding z-score (system: PXR:RXRa (NR concentration 270 nM, RXRa partner concentration 90 nM)) for entry TCTGCTAGGTCAACGATGGTCAACTAATCTGCTA = 2.4

Field PBM binding z-score (system: PXR:RXRa (NR concentration 270 nM, RXRa partner concentration 90 nM)) for entry TCATATAGGTAAAAGGTTAAAGTCGGTGTGGTAA = 3.01
